half-life at 1 µM by entry:
Assay: Liver microsome stability test (mouse)
Details: mouse, liver microsomes, pH 7.4

{"COMPOUND": "[2H]C([2H])([2H])OC(c1ccc(F)cc1C)c1cnc2n1CCN(c1cn[nH]c(=O)c1Cl)C2 (centres unmarked)", "half-life at 1 µM (min)": 59.8}
{"COMPOUND": "CC(c1cc(F)ccc1Cl)c1cnc2n1CCN(c1cn[nH]c(=O)c1Cl)C2 (centres unmarked)", "half-life at 1 µM (min)": 56.4}

---

Assay: in vitro
Conditions: mouse, microsomes, pH 7.4
PROPERTY MEASURED: half-life at 1 µM (min)

{"MOL": "O=c1[nH]ncc(N2CCn3c(Cc4ccc(F)cc4C(F)(F)F)cnc3C2)c1Cl", "MEASURED VALUE": 38.7}

---

Experiment: Liver microsome stability test (human)
Details: human, liver microsomes, pH 7.4
half-life at 1 µM for assorted molecules

{"MOLECULE": "CC(c1cc(F)ccc1Cl)c1cnc2n1CCN(c1cn[nH]c(=O)c1Cl)C2 (centres unmarked)", "half-life at 1 µM (h)": 1.17}
{"MOLECULE": "[2H]C([2H])([2H])OC(c1ccc(F)cc1C)c1cnc2n1CCN(c1cn[nH]c(=O)c1Cl)C2 (centres unmarked)", "half-life at 1 µM (h)": 3.15}
